# melting point per record follows

compound | melting point
NC1=NN(c2cccc(F)c2)C(c2ccccc2)C1 (stereo not given) | 165 to 166 °C
CC(C)(N)CSCCO | 49 to 51 °C
COc1c(-c2cc3c(s2)CCCC3O)ccc2c(=O)c(C(=O)O)cn(C3CC3)c12 (stereo not given) | 237 to 239 °C
COC(=O)CCc1ccc(-n2c(-c3ccccc3)nn(-c3ccc(C#N)cc3)c2=O)cc1 | 190 to 194 °C

Given the entry COc1cc(-c2ccccc2Cl)c(Cl)cc1C(=O)N1Cc2ccc(C(=O)N(C)Cc3cccnc3)n2Cc2ccccc21 , report its measured melting point.
196 to 198 °C

* * *

# melting point per record follows

Known melting point results, listed for orientation:
smilesRecord | melting point
Cc1c([N+](=O)[O-])ccnc1CSc1nc2ccc(C(F)(F)F)cc2[nH]1 | 192 to 193 °C
COCCOc1ccc(CCCN2C(=O)c3ccccc3C2=O)c(Oc2ncc(C(F)(F)F)cc2Cl)c1 | 101 to 103 °C

Given the entry O=C1COc2cc(SCc3ccc(O)cc3)ccc2N1 , report its measured melting point.
207 to 209 °C

Also check N#Cc1cccc(OCCc2c[nH]cn2)c1
189 to 190 °C

Also check CCOC(=O)Cc1ccc(C(=O)c2ccc(C)cc2)n1C
70 to 71 °C

* * *

# melting point per record follows

Known melting point results, listed for orientation:
molecule | reading
O=[N+]([O-])c1ccc(NC=C(S(=O)(=O)c2ccccc2)S(=O)(=O)c2ccccc2)nc1 | 229 to 231 °C
CC12CC(F)C3C4CCC(=O)C=C4CC(CCCCCBr)C3C1CCC2=O (centres undefined) | 75 to 76 °C
C=C(F)c1cc(O)cc2nc(-c3ccc(O)c(F)c3)oc12 | 213 to 214 °C
CN(C)c1ccc2c(c1)C(=O)CC(c1cccc(O)c1)=N2 | 342 to 344 °C

Given the entry CCCCCCN(Cc1ccccn1)C(Nc1cc(C(C)(C)C)c(O)c(C(C)(C)C)c1)=C1C(=O)OC(C)(C)OC1=O , report its measured melting point.
169 to 170 °C

Also check N#CC1=C(C#N)Sc2nc3cc(Cl)ccc3nc2S1
278 to 280 °C

Also check Nc1ccc2cccc(Oc3cc(-c4ccc(C(F)(F)F)cc4N)ncn3)c2n1
233 to 234 °C

Also check COc1cc2cc(-c3ccc(OCC(O)CNC(C)(C)C)cc3)n(C)c(=O)c2cc1OC (centres undefined)
165 to 166 °C

Also check CCn1nc(-c2cccc(Cl)c2)c2ncccc2c1=O
117 to 118 °C

Also check Cc1ccc(-c2cc(OCC(=O)N3CCOCC3)c3c(C(F)(F)F)cccc3n2)cc1
172 °C

Also check CCOC(=O)C1(CCl)Nc2cc(C)cc(C)c2C(=O)N1c1ccccc1Cl (centres undefined)
94 to 95 °C

Also check CC(C)(C)OC(=O)Nc1c(C#CBr)c(C#N)nn1-c1c(Cl)cc(C(F)(F)F)cc1Cl
168 to 170 °C

Also check CCOC(=O)c1cn(Cc2ccc(OCc3nc(-c4ccccc4)oc3C)cc2)nc1OCc1ccc(OCc2nc(-c3ccccc3)oc2C)cc1
118 to 119 °C

Also check Cc1oc(-c2ccccc2)nc1COc1ccc(C(C)CCC2SC(=O)NC2=O)cc1 (centres undefined)
64 to 65 °C

Also check COc1ccc(Sc2ccc3[nH]cc(C4CCN(C)CC4)c3c2)cc1
160 to 162 °C

Also check CC(C)(C)c1ccc(OCC(O)CN(CCO)CCO)cc1 (centres undefined)
45 to 47 °C

Also check O=C(Oc1ccc(-c2cc3ccccc3[nH]2)cc1)c1ccccc1
220 °C

Also check COc1ccc(C(=O)c2ccc(OC)cc2F)c(C)c1
88 to 90 °C

Also check Cc1cccc2c1-n1nnnc1SC2
174 °C
